# method: Inhibition of p38 kinase
Consider the following molecules; for each one, report its log10 of IC50.
// do not treat as linear: log10 of IC50, unit nM

# count of solved cases: 4
- testSmiles: "CN(C)c1cc(-c2c(-c3ccc(F)cc3)nn3ccccc23)ccn1"
  testValue: 3.00
- testSmiles: "Fc1ccc(-c2nn3ccccc3c2-c2ccncn2)cc1"
  testValue: 2.80
- testSmiles: "CN(C)C(=O)c1ccc2c(-c3ccnc(NC4CC4)n3)c(-c3ccc(F)cc3)nn2c1"
  testValue: 1.78
- testSmiles: "CN1CCN(CCCNc2nccc(-c3c(-c4ccc(F)cc4)nn4cc(C(N)=O)ccc34)n2)CC1"
  testValue: 1.60

I have 5 molecules here; please give me log10 of IC50 for each one.
1. CC(C)Nc1nccc(-c2c(-c3ccc(F)cc3)nn3cc(C(F)(F)F)ccc23)n1
2. CN(C)CCCNc1nccc(-c2c(-c3cccc(Cl)c3)nn3cc(C(F)(F)F)ccc23)n1
3. CN(C)CCCNc1nccc(-c2c(-c3ccc(F)cc3)nn3cc(C(F)(F)F)ccc23)n1
4. CN1CCN(CCCNc2nccc(-c3c(-c4ccc(F)cc4)nn4cc(C(F)(F)F)ccc34)n2)CC1
5. CC(C)Nc1cc(-c2c(-c3ccc(F)cc3)nn3cc(C(N)=O)ccc23)ccn1

Given back:
1: 1.60; 2: 2.00; 3: 2.80; 4: 2.11; 5: 1.90
